- assay.context: in isopropanol, 313 K
assay.readout: solubility (mole fraction)

>>> observed("Cc1cccc(Nc2ccccc2C(=O)O)c1C")
0.0033

====

- assay.context: in n-hexane, 298 K
assay.readout: solubility (mole fraction)

>>> observed("Cc1cccc(Nc2ccccc2C(=O)O)c1C")
0.0013

====

- assay.context: in acetone, 313 K
assay.readout: solubility (mole fraction)

>>> observed("Cc1cccc(Nc2ccccc2C(=O)O)c1C")
0.007

====

- assay.context: in acetone, 323 K
assay.readout: solubility (mole fraction)

>>> observed("Cc1cccc(Nc2ccccc2C(=O)O)c1C")
0.0098

====

- assay.context: in ethanol, 323 K
assay.readout: solubility (mole fraction)

>>> observed("Cc1cccc(Nc2ccccc2C(=O)O)c1C")
0.0042

====

- assay.context: in DMF, 308 K
assay.readout: solubility (mole fraction)

>>> observed("Cc1cccc(Nc2ccccc2C(=O)O)c1C")
0.0275

====

- assay.context: in cyclohexane, 318 K
assay.readout: solubility (mole fraction)

>>> observed("Cc1cccc(Nc2ccccc2C(=O)O)c1C")
0.0014

====

- assay.context: in n-hexane, 308 K
assay.readout: solubility (mole fraction)

>>> observed("Cc1cccc(Nc2ccccc2C(=O)O)c1C")
0.0016

====

- assay.context: in DMAc, 303 K
assay.readout: solubility (mole fraction)

>>> observed("Cc1cccc(Nc2ccccc2C(=O)O)c1C")
0.138

====

- assay.context: in water, 313 K
assay.readout: solubility (mole fraction)

>>> observed("Cc1cccc(Nc2ccccc2C(=O)O)c1C")
"1e-05"

====

- assay.context: in cyclohexane, 308 K
assay.readout: solubility (mole fraction)

>>> observed("Cc1cccc(Nc2ccccc2C(=O)O)c1C")
0.0011

====

- assay.context: in n-hexane, 313 K
assay.readout: solubility (mole fraction)

>>> observed("Cc1cccc(Nc2ccccc2C(=O)O)c1C")
0.0018

====

- assay.context: in ethanol, 308 K
assay.readout: solubility (mole fraction)

>>> observed("Cc1cccc(Nc2ccccc2C(=O)O)c1C")
0.0024

====

- assay.context: in acetone, 318 K
assay.readout: solubility (mole fraction)

>>> observed("Cc1cccc(Nc2ccccc2C(=O)O)c1C")
0.0084

====

- assay.context: in cyclohexane, 303 K
assay.readout: solubility (mole fraction)

>>> observed("Cc1cccc(Nc2ccccc2C(=O)O)c1C")
0.0009

====

- assay.context: in ethanol, 298 K
assay.readout: solubility (mole fraction)

>>> observed("Cc1cccc(Nc2ccccc2C(=O)O)c1C")
0.0019

====

- assay.context: in ethyl acetate, 323 K
assay.readout: solubility (mole fraction)

>>> observed("Cc1cccc(Nc2ccccc2C(=O)O)c1C")
0.0096

====

- assay.context: in n-heptane, 313 K
assay.readout: solubility (mole fraction)

>>> observed("Cc1cccc(Nc2ccccc2C(=O)O)c1C")
0.0017

====

- assay.context: in water, 323 K
assay.readout: solubility (mole fraction)

>>> observed("Cc1cccc(Nc2ccccc2C(=O)O)c1C")
"5e-05"
